Would you kindly list relative % inhibition for each of these molecules?
# Tested on: P. falciparum NF54-pfs16-GFP early (I-III) stage gametocytes
# testMethodNotes: relative % inhibition of viable gametocyte number; higher = more gametocytocidal
# reportedConditions: 5 µM; stage: early (I-III) gametocyte; incubation 72 h
Answers are plain numbers, in %.

Example cases with answers are listed next.
| molecule | relative % inhibition (%) |
| --- | --- |
| CN1CCN(c2nc(Nc3ccc(O)cc3)nc3ccccc23)CC1 | -9.15 |
| COc1ccc(Nc2nc(NCc3ccccc3)c3ccccc3n2)cc1 | 98.1 |
| CCCCC(O)(c1ccc(Cl)cc1)C(CN1CCOCC1)c1ccc(Cl)cc1 (stereo not drawn) | 92.5 |

Hi team, please reply with relative % inhibition for each item in this list.
1. CC1CC2=C(CC1CNCCCN(C)C)C(C)(C)CCC2 (stereo not drawn)
2. CCOC(=O)C1CCN(C(=O)CN2C(=O)c3ccccc3C2c2c[nH]c3ccccc23)CC1 (stereo not drawn)
3. COc1cccc(Cn2c(Oc3ccccc3)nc3c2c(=O)n(C)c(=O)n3C)c1

Output:
[97.1, 98.3, -14]

Hi team, please reply with relative % inhibition for each item in this list.
1. CCOc1cc(Br)c(C(C)NC(=O)c2cccc(OC)c2)cc1OCC (stereo not drawn)
2. FC(F)(F)c1cccc(CNC2CCN(CCc3ccccc3)CC2)c1
3. CCN1CCN(Cc2ccc(NC(=O)c3cc4ccc5cccnc5c4[nH]3)cc2)CC1

Output:
1. 46.2
2. 82.2
3. 59.1

These measurements were taken from the supplement of paper PMC3842684.
